# Test system: 327498-153-R-J2-PDC complex spheroid growth, % test/control
# TEST: Anticancer human tumor 327498-153-R-J2-PDC patient-derived uterine carcinosarcoma cell line growth inhibition [Asc]
# CONDITION_DETAILS: second compound 0.0949 µM; first compound 0.1 µM; hits give low values

[
  {
    "COMPOUND": "CCN1CCN(Cc2ccc(Nc3ncc(F)c(-c4cc(F)c5nc(C)n(C(C)C)c5c4)n3)nc2)CC1 + CCN1C(C(=O)NC23CCC(C(=O)O)(CC2)CC3)C(c2cccc(Cl)c2F)C2(C(=O)Nc3cc(Cl)ccc32)C12CCCCC2",
    "viability, T/C": "31.7%"
  },
  {
    "COMPOUND": "C=CC(=O)N1CCN(c2nc(=O)n(-c3c(C)ccnc3C(C)C)c3nc(-c4c(O)cccc4F)c(F)cc23)C(C)C1 (centres undefined) + CCN1C(C(=O)NC23CCC(C(=O)O)(CC2)CC3)C(c2cccc(Cl)c2F)C2(C(=O)Nc3cc(Cl)ccc32)C12CCCCC2",
    "viability, T/C": "43.3%"
  },
  {
    "COMPOUND": "C#Cc1c(F)ccc2cc(O)cc(-c3ncc4c(N5CC6CCC(C5)N6)nc(OCC56CCCN5CC(F)C6)nc4c3F)c12 (centres undefined) + CCN1C(C(=O)NC23CCC(C(=O)O)(CC2)CC3)C(c2cccc(Cl)c2F)C2(C(=O)Nc3cc(Cl)ccc32)C12CCCCC2",
    "viability, T/C": "74.7%"
  },
  {
    "COMPOUND": "CNC(C)C(=O)NC1CN(S(=O)(=O)c2cccc(S(=O)(=O)N3CCC4CCC(C(=O)NC(c5ccccc5)c5ccccc5)N4C(=O)C(NC(=O)C(C)NC)C3)c2)CCC2CCC(C(=O)NC(c3ccccc3)c3ccccc3)N2C1=O (centres undefined) + CCN1C(C(=O)NC23CCC(C(=O)O)(CC2)CC3)C(c2cccc(Cl)c2F)C2(C(=O)Nc3cc(Cl)ccc32)C12CCCCC2",
    "viability, T/C": "65.8%"
  }
]

====

# Test system: 327498-153-R-J2-PDC complex spheroid growth, % test/control
# TEST: Anticancer human tumor 327498-153-R-J2-PDC cell line growth inhibition [Asc];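 also: spheroids exposed to compound for 7 days after 3 days of growth; 100% = DMSO vehicle control wells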
# CONDITION_DETAILS: second compound 0.949 µM; first compound 0.00316 µM; hits give low values
// reported viability, T/C per item

[
  {
    "COMPOUND": "Cn1ncnc1[C@H]1c2n[nH]c(=O)c3cc(F)cc(c23)N[C@@H]1c1ccc(F)cc1 + CCN1C(C(=O)NC23CCC(C(=O)O)(CC2)CC3)C(c2cccc(Cl)c2F)C2(C(=O)Nc3cc(Cl)ccc32)C12CCCCC2",
    "viability, T/C (%)": 3.58
  },
  {
    "COMPOUND": "CCN1CCN(Cc2ccc(Nc3ncc(F)c(-c4cc(F)c5nc(C)n(C(C)C)c5c4)n3)nc2)CC1 + CCN1C(C(=O)NC23CCC(C(=O)O)(CC2)CC3)C(c2cccc(Cl)c2F)C2(C(=O)Nc3cc(Cl)ccc32)C12CCCCC2",
    "viability, T/C (%)": 9.27
  },
  {
    "COMPOUND": "COc1c(OCCCN2CCOCC2)ccc2c3n(c(=NC(=O)c4cnc(N)nc4)nc12)CCN3 + CCN1C(C(=O)NC23CCC(C(=O)O)(CC2)CC3)C(c2cccc(Cl)c2F)C2(C(=O)Nc3cc(Cl)ccc32)C12CCCCC2",
    "viability, T/C (%)": 12.2
  },
  {
    "COMPOUND": "CNC(C)C(=O)NC1CN(S(=O)(=O)c2cccc(S(=O)(=O)N3CCC4CCC(C(=O)NC(c5ccccc5)c5ccccc5)N4C(=O)C(NC(=O)C(C)NC)C3)c2)CCC2CCC(C(=O)NC(c3ccccc3)c3ccccc3)N2C1=O (stereo unspecified) + CCN1C(C(=O)NC23CCC(C(=O)O)(CC2)CC3)C(c2cccc(Cl)c2F)C2(C(=O)Nc3cc(Cl)ccc32)C12CCCCC2",
    "viability, T/C (%)": 13.8
  },
  {
    "COMPOUND": "NC1CCC(NC2CC2c2ccccc2)CC1 (stereo unspecified) + CCN1C(C(=O)NC23CCC(C(=O)O)(CC2)CC3)C(c2cccc(Cl)c2F)C2(C(=O)Nc3cc(Cl)ccc32)C12CCCCC2",
    "viability, T/C (%)": 15.8
  },
  {
    "COMPOUND": "O=C(c1ccc(F)c(F)c1Nc1ccc(I)cc1F)N1CC(O)([C@@H]2CCCCN2)C1 + CCN1C(C(=O)NC23CCC(C(=O)O)(CC2)CC3)C(c2cccc(Cl)c2F)C2(C(=O)Nc3cc(Cl)ccc32)C12CCCCC2",
    "viability, T/C (%)": 8.99
  }
]
